Test system: OVCAR-3 ovarian
Procedure Summary: NCI-60 one-dose screen, 48 h (100 = growth as untreated, 0 = no growth, -100 = all killed)
Experimental Setup: 10 µM unless noted
About 83,000 compounds went through this panel and 20% of them were active in at least one assay; those are over-represented in the sample as a whole.
Note to self: values exactly at 70% are MET. So growth at or above 70% is MET, below is NOT MET.

The following compounds have reported results that may help.
In [3]: df
Out[3]:
                                   compound  classification
0              O=C1CCCCC1(c1ccccc1)c1ccccc1             MET
1                      CCN(CC)c1ccc(N=O)cc1         NOT MET
2  COP(=O)(OC)/C(=N\NS(=O)(=O)c1ccc(C)cc1)c1ccccc1             MET

Exercise: Please tell me: is the compound O=C1/C(=C/c2ccc(Cl)cc2)CN(Cc2cn(CCNc3ccnc4cc(Cl)ccc34)nn2)C/C1=C\c1ccc(Cl)cc1 at or over 70% in terms of growth?
Key: NOT MET

Exercise: Please tell me: is the compound S=c1[nH]nc(-c2cc3ccc2CCc2ccc(cc2)CC3)n1-c1ccccc1 at or over 70% in terms of growth?
Key: MET

Exercise: Please tell me: is the compound O=c1ccn(-c2ncnc3nc[nH]c23)cc1 at or over 70% in terms of growth?
Key: MET

Exercise: Please tell me: is the compound Cc1cc(C(C)(C)C)ccc1S at or over 70% in terms of growth?
Key: MET

Exercise: Please tell me: is the compound COc1cccc(CC(C)=C(c2ccc(OCCN3CCCCC3)cc2)c2ccc(OCCN3CCCCC3)cc2)c1 at or over 70% in terms of growth?
Key: NOT MET

This collection of values is drawn from PubChem BioAssay (NCI).
